# experimentDescription: Drug concentration in CD1 mouse brain at 1 mg/kg, iv measured at […] by LC-MS/MS analysis
# Type: ADME, organism-based
# experimentalSetup: time 0.25 hrs, read-out: Ct
readoutType: concentration at […] (ng/g)

[[record]]
moleculesmiles = "CNC(=O)c1cccc(-c2cnc(N(C)c3ccc(F)cc3)o2)c1"
readouttype = "concentration at […]"
recordedmeasurement = 200

[[record]]
moleculesmiles = "NCc1cccc(-c2cnc(Nc3ccc(F)cc3)o2)c1"
readouttype = "concentration at […]"
recordedmeasurement = 473


(A) CN(c1ccc(F)cc1)c1ncc(-c2cccc(C(=O)O)c2)o1
(B) Cc1noc(-c2cccc(-c3cnc(Nc4ccc(F)cc4)o3)c2)n1
Query: Param pair: A , B . Output: the one whose concentration at […] is numerically greater. Give the label of your selection.
Response: B

---

# experimentDescription: Drug concentration in CD1 mouse plasma at 1 mg/kg, iv measured at 0.5 hrs by LC-MS/MS analysis
# Assay type: ADME, organism-based
readoutType: concentration at 0.5 h (ng/mL)

(P) CN(c1ccc(F)cc1)c1ncc(-c2cccc(C(=O)O)c2)o1
(Q) CNC(=O)c1cccc(-c2cnc(N(C)c3ccc(F)cc3)o2)c1
(R) Cc1noc(-c2cccc(-c3cnc(Nc4ccc(F)cc4)o3)c2)n1
(S) NCc1cccc(-c2cnc(Nc3ccc(F)cc3)o2)c1
Query: List items by concentration at 0.5 h in falling order. Returns: the labels listed in the requested order.
Response: P, R, Q, S

---

# experimentDescription: Kinetic solubility of compound at pH 7.4 by shake flask method
# Format: physicochemical
# experimentalSetup: buffer, read-out: Kinetic_solubility
readoutType: solubility kinetic (µM)

The examples below pair each entry with its known result.
[[record]]
moleculesmiles = "CC(=O)Nc1cccc(-c2cnc(Nc3ccc(F)cc3)o2)c1"
readouttype = "solubility kinetic"
recordedmeasurement = 5

[[record]]
moleculesmiles = "O=C(O)c1cccc(-c2csc(Nc3ccccc3F)n2)c1"
readouttype = "solubility kinetic"
recordedmeasurement = 80.9

[[record]]
moleculesmiles = "COc1cccnc1Nc1nc(-c2ccccn2)cs1"
readouttype = "solubility kinetic"
recordedmeasurement = 1.2


(a) NCc1cccc(-c2cnc(Nc3ccc(F)cc3)o2)c1
(b) O=C(O)c1cccc(-c2csc(Nc3ccc(F)cc3)n2)c1
Query: Parameter metric = solubility kinetic. Return the lower-valued option from a and b . Give the label of your selection.
Response: a
(a: 50.8 µM, b: 77.7 µM)

---

# experimentDescription: Ratio of drug concentration in brain to plasma in CD1 mouse at 1 mg/kg, iv measured at […] by LC-MS/MS analysis
# Assay type: ADME, organism-based
# experimentalSetup: time 0.25 hrs
readoutType: Kp at […]

[[record]]
moleculesmiles = "Cc1noc(-c2cccc(-c3cnc(Nc4ccc(F)cc4)o3)c2)n1"
recordedmeasurement = 6.93

[[record]]
moleculesmiles = "CN(c1ccc(F)cc1)c1ncc(-c2cccc(C(=O)O)c2)o1"
recordedmeasurement = 0.0213


(I) CNC(=O)c1cccc(-c2cnc(N(C)c3ccc(F)cc3)o2)c1
(II) NCc1cccc(-c2cnc(Nc3ccc(F)cc3)o2)c1
Query: Parameter metric = Kp at […]. Return the lower-valued option from I and II . Give the label of your selection.
Response: I

---

# experimentDescription: Drug concentration in CD1 mouse brain at 1 mg/kg, iv measured at 0.5 hrs by LC-MS/MS analysis
# Assay type: ADME, organism-based
# experimentalSetup: read-out: Ct
readoutType: concentration at 0.5 h (ng/g)

[[record]]
moleculesmiles = "Cc1noc(-c2cccc(-c3cnc(Nc4ccc(F)cc4)o3)c2)n1"
measureunit = "ng/g"
recordedmeasurement = 357


(1) CNC(=O)c1cccc(-c2cnc(N(C)c3ccc(F)cc3)o2)c1
(2) CN(c1ccc(F)cc1)c1ncc(-c2cccc(C(=O)O)c2)o1
(3) NCc1cccc(-c2cnc(Nc3ccc(F)cc3)o2)c1
Query: Could you please order the items by concentration at 0.5 h, going from the lowest number to the highest? Returns: the labels listed in the requested order.
Response: 2, 1, 3

---

# experimentDescription: Drug concentration in CD1 mouse plasma at 1 mg/kg, iv measured at […] by LC-MS/MS analysis
# Type: ADME, organism-based
# experimentalSetup: time 0.25 hrs
readoutType: concentration at […] (ng/mL)

[[record]]
moleculesmiles = "CN(c1ccc(F)cc1)c1ncc(-c2cccc(C(=O)O)c2)o1"
measureunit = "ng/mL"
recordedmeasurement = 788


(1) Cc1noc(-c2cccc(-c3cnc(Nc4ccc(F)cc4)o3)c2)n1
(2) NCc1cccc(-c2cnc(Nc3ccc(F)cc3)o2)c1
Query: Parameter metric = concentration at […]. Return the lower-valued option from 1 and 2 . Give the label of your selection.
Response: 2

---

# experimentDescription: Oral bioavailability in CD1 mouse at 5 mg/kg by LC-MS/MS analysis
# Format: ADME, organism-based
# experimentalSetup: in vivo
readoutType: bioavailability (%)

(A) O=C(O)c1cccc(-c2cnc(Nc3ccccc3F)o2)c1
(B) O=C(O)c1cccc(-c2csc(Nc3ccccc3F)n2)c1
Query: Parameter metric = bioavailability. Return the lower-valued option from A and B . Give the label of your selection.
Response: A

---

# experimentDescription: Ratio of drug concentration in brain to plasma in CD1 mouse at 1 mg/kg, iv measured at 0.5 hrs by LC-MS/MS analysis
# Assay type: ADME, organism-based
readoutType: Kp at 0.5 h

(P) NCc1cccc(-c2cnc(Nc3ccc(F)cc3)o2)c1
(Q) Cc1noc(-c2cccc(-c3cnc(Nc4ccc(F)cc4)o3)c2)n1
(R) CNC(=O)c1cccc(-c2cnc(N(C)c3ccc(F)cc3)o2)c1
(S) CN(c1ccc(F)cc1)c1ncc(-c2cccc(C(=O)O)c2)o1
Query: Could you please order the items by Kp at 0.5 h, going from the lowest number to the highest? Returns: the labels listed in the requested order.
Response: S, R, Q, P
(S: 0.0137, R: 1.02, Q: 4.81, P: 14.3)

---

# experimentDescription: Kinetic solubility of compound at pH 7.4 by shake flask method
# Type: physicochemical
# experimentalSetup: buffer, read-out: Kinetic_solubility
readoutType: solubility kinetic (µM)

The examples below pair each entry with its known result.
[[record]]
moleculesmiles = "O=C(O)c1cccc(-c2cnc(-c3ccccc3F)o2)c1"
readouttype = "solubility kinetic"
measureunit = "µM"
recordedmeasurement = 69.5

[[record]]
moleculesmiles = "O=C(O)c1cccc(-c2csc(Nc3ccccc3)n2)c1"
readouttype = "solubility kinetic"
measureunit = "µM"
recordedmeasurement = 70.2

[[record]]
moleculesmiles = "O=C(O)c1cccc(-c2noc(-c3ccccc3F)n2)c1"
readouttype = "solubility kinetic"
measureunit = "µM"
recordedmeasurement = 70.5

[[record]]
moleculesmiles = "O=C(O)c1cccc(-c2csc(-c3ccccc3F)n2)c1"
readouttype = "solubility kinetic"
measureunit = "µM"
recordedmeasurement = 55.2


(I) Fc1cccnc1Nc1nc(-c2ccccn2)cs1
(II) CN(c1ccc(F)cc1)c1ncc(-c2cccc(C(=O)O)c2)o1
(III) Cc1cccnc1Nc1ncc(-c2ccccn2)o1
Query: Could you please order the items by solubility kinetic, going from the lowest number to the highest? Returns: the labels listed in the requested order.
Response: I, III, II

---

# experimentDescription: Kinetic solubility of compound at pH 7.4 by shake flask method
# Format: physicochemical
# experimentalSetup: buffer, read-out: Kinetic_solubility
readoutType: solubility kinetic (µM)

[[record]]
moleculesmiles = "OCc1cccc(-c2csc(Nc3ccccc3F)n2)c1"
readouttype = "solubility kinetic"
recordedmeasurement = 30.9

[[record]]
moleculesmiles = "O=C(O)c1ccc(-c2csc(-c3ccccc3F)n2)cc1"
readouttype = "solubility kinetic"
recordedmeasurement = 38.4

[[record]]
moleculesmiles = "O=C(O)c1cccc(-c2cnc(Nc3ccc(F)cc3F)o2)c1"
readouttype = "solubility kinetic"
recordedmeasurement = 69

[[record]]
moleculesmiles = "CNC(=O)c1cccc(-c2cnc(N(C)c3ccc(F)cc3)o2)c1"
readouttype = "solubility kinetic"
recordedmeasurement = 60.4


(1) COc1cccc(-c2csc(Nc3ccccc3F)n2)c1
(2) CNC(=O)c1cccc(-c2cnc(Nc3ccc(F)cc3)o2)c1
(3) Nc1cccc(-c2cnc(Nc3ccc(F)cc3)o2)c1
Query: Parameters: sort_field (solubility kinetic), sort_dir (desc). Returns: the labels listed in the requested order.
Response: 1, 3, 2
(1: 49.3 µM, 3: 15.2 µM, 2: 3.1 µM)

---

# experimentDescription: Kinetic solubility of compound at pH 7.4 by shake flask method
# Type: physicochemical
# experimentalSetup: buffer, read-out: Kinetic_solubility
readoutType: solubility kinetic

The examples below pair each entry with its known result.
[[record]]
moleculesmiles = "COC(=O)c1ccc(-c2cnc(Nc3ccccc3F)o2)cc1"
recordedmeasurement = "< 1 µM"

[[record]]
moleculesmiles = "COC(=O)c1cccc(-c2cnc(Nc3ccc(F)cc3)o2)c1"
recordedmeasurement = "< 1 µM"

[[record]]
moleculesmiles = "COC(=O)c1cccc(-c2cnc(Nc3cccc(F)c3)o2)c1"
recordedmeasurement = "< 1 µM"

[[record]]
moleculesmiles = "O=C(O)c1cccc(-c2nc(Nc3ccccc3F)cs2)c1"
recordedmeasurement = "> 100 µM"

[[record]]
moleculesmiles = "Fc1cccc(-c2csc(Nc3ccccc3F)n2)c1"
recordedmeasurement = "< 1 µM"


# evaluate next
Query: For the compound `Fc1ccccc1Nc1nc(-c2ccccc2)cs1` , give its reported solubility kinetic.
Response: < 1 µM
